Reported GI50 values follow for various molecules
# System: CAKI-1
# experimental.protocol: NCI tumour cell line growth inhibition, 48 h
Where a name gives a salt, the structure may show the parent alone. The source made the active and inactive calls. Rule as the data show it: active = GI50 up to about 1.1 µM and inactive = higher.
property.label: GI50

>>> result("COc1cc2c(cc1O)[C@H](Cc1ccc(Oc3cc(C[C@H]4c5cc(OC)c(OC)cc5CCN4C)ccc3OC)cc1)NCC2")
"4.08 µM (inactive)"
>>> result("NN/C(=N\\S(=O)(=O)c1cc(S(=O)(=O)c2ccccc2)cs1)Nc1ccc(Cl)cc1")
"34.1 µM (inactive)"
>>> result("CCc1ccc2c(c1)N(CC(C)CN(C)C)c1ccccc1S2 (centres undefined) [ETYMEMAZINE HYDROCHLORIDE]")
"5.06 µM (inactive)"
>>> result("CC(NNC(=O)c1cc[n+]([BH2-]C#N)cc1)c1ccc(F)cc1 (centres undefined)")
"> 100 µM (inactive)"
